B1: Pistol ribozyme (parent)
chain: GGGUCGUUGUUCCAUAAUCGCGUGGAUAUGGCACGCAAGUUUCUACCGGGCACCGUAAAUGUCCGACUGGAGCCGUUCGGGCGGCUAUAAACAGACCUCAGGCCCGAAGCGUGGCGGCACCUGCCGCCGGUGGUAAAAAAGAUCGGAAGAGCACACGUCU

- Variants of: B1
- method_notes: aptazyme ON/OFF ratio, guanine; higher = stronger switching; co-transcriptional cleavage with and without guanine
readout: aptazyme ON/OFF ratio
Please reply with the number alone, leaving off any unit.

{"residue_change": "U10G U11G C12G C13U", "aptazyme ON/OFF ratio": 1.26}
{"residue_change": "U7C U8C G9C U10G C12G", "aptazyme ON/OFF ratio": 1.1}
{"residue_change": "U7A U8C U10A C13A", "aptazyme ON/OFF ratio": 1.06}

The variant listed as G9C U10A U11A C12U C13G has a reported aptazyme ON/OFF ratio of 1.14

The variant listed as U7G U8C G9U C13A has a reported aptazyme ON/OFF ratio of 1.36

The variant listed as U7C U8G G9U U11C C13U has a reported aptazyme ON/OFF ratio of 1.09

The variant listed as U7C U8C G9U U10G U11G C12G C13A has a reported aptazyme ON/OFF ratio of 1.1

The variant listed as U7C U8C G9A U10C U11G C12G has a reported aptazyme ON/OFF ratio of 1.36

The variant listed as U7A U8A G9A U10G U11C C13U has a reported aptazyme ON/OFF ratio of 1.03

# credit: the RNAGym collection of RNA variant scans (doi:10.1021/acssynbio.7b00057)
